# assay_overview: growth inhibition, single agents and combos, ICB984, cell-based, cisplatin or BGB combos, synergistic combos for chromothripsis tumors (AID 1671451);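 note: cells exposed for 96 hours before readout; 0% = vehicle DMSO and 100% = killing by high DMSO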
# conditions: ICB984 medulloblastoma cells, drug combinations, cisplatin combo, at 0.05 µM, stronger effect = higher value
Listing of entries alongside the reported inhibition.
quantity_measured: inhibition (%)

In [3]: df
Out[3]:
                                    compound  units_of_measure  observed_value
 0          Nc1nc2c(ncn2COC(CO)CO)c(=O)[nH]1                 %            96.7
 1  Cc1nc2ccc(CN(C)c3ccc(C(=O)N[C@@H](CCC(=O)O)C(=O)O)s3)cc2c(=O)[nH]1                 %           -53.1
 2  C[C@H]1COc2c(C3(N)CC3)c(F)cc3c(=O)c(C(=O)O)cn1c23                 %           -30.9
 3                       O=C(O)CCCCCCCC(=O)O                 %           -24.1
 4  O=c1c(O)c(-c2ccc(O)c(O)c2)oc2cc(O)cc(O)c12                 %           -21.1
 5       CCn1cc(C(=O)O)c(=O)c2cc3c(cc21)OCO3                 %            6.59
 6                           O=C(O)P(=O)(O)O                 %           -29.6
 7                         Nc1[nH]c(=O)ncc1F                 %           -8.87
 8  CC(N)C12CC3CC(CC(C3)C1)C2 (configuration not stated)                 %           -17.4
 9          Cc1oncc1C(=O)Nc1ccc(C(F)(F)F)cc1                 %            31.4
10                  Nc1nc(=S)c2[nH]cnc2[nH]1                 %           -37.7
11  CCN1CCN(c2cc3c(cc2F)c(=O)c(C(=O)O)cn3C2CC2)CC1                 %           -18.9

###

# assay_overview: compounds altering viability of human ES cells (AID 493140);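 note: cells exposed to compounds for four days before counting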
# conditions: human embryonic stem cell survival screen; stronger effect = higher value
Class boundaries, taken from values of survival, are as follows: low: < 4; medium: ≥ 4 and < 10; high: ≥ 10

In [3]: df
Out[3]:
                                    molecule  class_label
 0  CN(Cc1cnc2nc(N)nc(N)c2n1)c1ccc(C(=O)N[C@@H](CCC(=O)O)C(=O)O)cc1         high
 1  CC(=O)OCC1=C(C(=O)O)N2C(=O)[C@@H](NC(=O)CSc3ccncc3)[C@H]2SC1          low
 2  CC(C)(Oc1ccc(CCNC(=O)c2ccc(Cl)cc2)cc1)C(=O)O         high
 3        COc1cc(-c2ccc(=O)[nH]n2)ccc1OC(F)F          low
 4      CN1CCC(=C2c3ccccc3CC(=O)c3sccc32)CC1       medium
 5  C=C1c2cccc(O)c2C(O)=C2C(=O)[C@]3(O)C(O)=C(C(N)=O)C(=O)[C@@H](N(C)C)[C@@H]3[C@@H](O)[C@H]12       medium
 6  C1CCC(C(CC2CCCCN2)C2CCCCC2)CC1 (stereo not drawn)       medium
 7  CN1CCN2c3ccccc3Cc3ccccc3C2C1 (stereo not drawn)         high
 8  Cc1ncc([N+](=O)[O-])n1CC(O)CCl (stereo not drawn)         high
 9  CCCCN(CCCC)CCC(O)c1cc2c(Cl)cc(Cl)cc2c2cc(C(F)(F)F)ccc12 (stereo not drawn)          low
10                CC(C)(Oc1ccc(Cl)cc1)C(=O)O       medium
11                  Cc1cc(=O)n(-c2ccccc2)n1C         high
12                   CCCCOc1ccc(CC(=O)NO)cc1         high
13  Cc1cccc(C)c1NC(=O)C(C)N (stereo not drawn)         high
14  CO[C@]12C[C@@H](COC(=O)c3cncc(Br)c3)CN(C)[C@@H]1Cc1cn(C)c3cccc2c13       medium
15  Cc1nccn1CC1CCc2c(c3ccccc3n2C)C1=O (stereo not drawn)         high
16  CN(C)CCOC(=O)C(c1ccccc1)C1(O)CCCC1 (stereo not drawn)         high
17         COc1cnc(NS(=O)(=O)c2ccc(N)cc2)nc1       medium
18  C[n+]1cc2c3c(ccc2c2ccc4cc5c(cc4c21)OCO5)OCO3          low
19       Nc1ccc(S(=O)(=O)Nc2cnc3ccccc3n2)cc1          low
20  COC(=O)C1=C(C)NC(C)=C(C(=O)OC(C)C)C1c1cccc2nonc12 (stereo not drawn)         high
21  C=CCc1ccccc1OCC(O)CNC(C)C (stereo not drawn)       medium

###

We begin with a simple list: items and their reported inhibition.
# assay_overview: growth inhibition, single agents and combos, LFS_MB_1R, cell-based, cisplatin or BGB combos, synergistic combos for chromothripsis tumors (AID 1671452);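 note: cells exposed for 96 hours before readout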
# conditions: LFS_MB_1R medulloblastoma cells, measured here: combination with cisplatin, at 0.5 µM, stronger effect = higher value
quantity_measured: inhibition

>>> df
                                    molecule  observed_value
 0  O=c1oc2c(O)c(O)cc3c(=O)oc4c(O)c(O)cc1c4c23          -11.4%
 1  O=c1c(O)c(-c2ccc(O)c(O)c2)oc2cc(O)cc(O)c12            -39%
 2  CC(N)C12CC3CC(CC(C3)C1)C2 (centres undefined)          -47.8%
 3          Cc1oncc1C(=O)Nc1ccc(C(F)(F)F)cc1          -43.1%
 4  C[C@H]1COc2c(C3(N)CC3)c(F)cc3c(=O)c(C(=O)O)cn1c23          -26.2%
 5  CCN1CCN(c2cc3c(cc2F)c(=O)c(C(=O)O)cn3C2CC2)CC1           -5.5%
 6       CCn1cc(C(=O)O)c(=O)c2cc3c(cc21)OCO3          -7.75%
 7                  Nc1nc(=S)c2[nH]cnc2[nH]1          -61.3%
 8           Cc1ccnc2c1NC(=O)c1cccnc1N2C1CC1           15.1%
 9                                  NC(=O)NO           23.3%
10                           O=C(O)P(=O)(O)O          -81.2%
11                       O=C(O)CCCCCCCC(=O)O          -37.2%
12  CN(C)c1ccc(C(=C2C=CC(=[N+](C)C)C=C2)c2ccc(N(C)C)cc2)cc1           82.3%
13          Nc1nc2c(ncn2COC(CO)CO)c(=O)[nH]1           61.8%

###

// values below are reported viability decrease (inhibition)
# assay_overview: NPC library primary testing for decreased DLD-1 cell viability via CellTiter-Glo (AID 1117346)
# conditions: DLD-1 viability, CellTiter-Glo luminescence; at 20 µM (top of the series)
quantity_measured: viability decrease (inhibition) (%)

In [3]: df
Out[3]:
                                    compound                quantity_measured  observed_value
 0                           CC(=O)Nc1ccccc1  viability decrease (inhibition)            3.55
 1  CC(=O)O[C@H]1C[C@@H]2CC[C@@H]3[C@H](CC[C@@]4(C)[C@H]3C[C@H]([N+]3(C)CCCCC3)[C@@H]4OC(C)=O)[C@@]2(C)C[C@@H]1N1CCCCC1  viability decrease (inhibition)            -7.1
 2  CC(NCCC(c1ccccc1)c1ccccc1)c1ccccc1 (stereo unspecified)  viability decrease (inhibition)              89
 3  CC(C)(C)C(O)/C=C/c1ccc2c(c1)OCO2 (stereo unspecified)  viability decrease (inhibition)            -1.3
 4  CC1CCc2cc(F)cc3c(=O)c(C(=O)O)cn1c23 (stereo unspecified)  viability decrease (inhibition)            -6.7
 5             O=C(NCCO[N+](=O)[O-])c1cccnc1  viability decrease (inhibition)            -3.2
 6  Nc1nc2c(c(=O)[nH]1)N(C=O)C(CNc1ccc(C(=O)N[C@@H](CCC(=O)O)C(=O)O)cc1)CN2 (stereo partly specified)  viability decrease (inhibition)            -9.9
 7  O=C(O)c1ccccc1C(=O)Nc1ccc(S(=O)(=O)Nc2nccs2)cc1  viability decrease (inhibition)           -5.15
 8  COc1ccc2c(c1)c(CC(=O)OCC(=O)O)c(C)n2C(=O)c1ccc(Cl)cc1  viability decrease (inhibition)             0.1
 9  O=C(O)CSCC(=O)NC1CCSC1=O (stereo unspecified)  viability decrease (inhibition)           -4.25
10  COc1ccnc(CS(=O)c2nc3ccc(OC(F)F)cc3[nH]2)c1OC (stereo unspecified)  viability decrease (inhibition)            -5.4
